- tgt: AMP-activated protein kinase, AMPK (Homo sapiens) (UniProt P54646+O43741+P54619+Q9UGJ0+Q9Y478+Q13131+Q9UGI9)
- assay.details: AMP-dependent Kinase enzyme assay. An in vitro enzyme assay that detects ADP turnover that is directly proportional to AMPK activity. This uses naive AMPK that is activated during the assay with MK-8722
- Assay type: functional
- Design: scale not given: direction of the effect not stated beside the values
- condition.summary: 30 µM
Reported values of Percent Effect for individual entries

- compound: "O=C(C1CCOCC1)N1C[C@@H]2C[C@@H](c3nc(C4CC4)cs3)O[C@@H]2C1"
  Percent Effect / %: -11.2
- compound: "COc1ccc(F)cc1C(C)NC(=O)c1nnc(C)s1 (stereo not given)"
  Percent Effect / %: 0.954
- compound: "Cc1cc(C)n(CC2CN(Cc3cccc(C(N)=O)c3)CCO2)n1 (stereo not given)"
  Percent Effect / %: 8.27
- compound: "Cn1cnc2c1CCN(Cc1noc(-c3ccccc3)n1)C2"
  Percent Effect / %: -9.94
- compound: "COCCCNC(=O)N1CCCC(c2nncn2C)C1 (stereo not given)"
  Percent Effect / %: -3.92
- compound: "c1nc2c(c(C3CC3)n1)CCN(Cc1ccoc1)CC2"
  Percent Effect / %: -4.87
- compound: "COC(=O)c1sccc1NC(=O)C1CCCN1C(=O)c1ccco1 (stereo not given)"
  Percent Effect / %: 13.2
- compound: "Cc1csc2c(=O)n3c(nc12)CCN(C(=O)c1cccnc1)CC3"
  Percent Effect / %: 13.3
- compound: "CNC(=O)C1Cn2ccnc2C2(CCN(Cc3cccnc3)CC2)O1 (stereo not given)"
  Percent Effect / %: 2.08
- compound: "O=C(c1cccn2ccnc12)N1CCCN(c2cccnn2)CC1"
  Percent Effect / %: 6.04
- compound: "CN(C)C(=O)N1CCN(Cc2noc(Cc3ccccc3)n2)CC1"
  Percent Effect / %: -1.46
- compound: "O=C(CCN1CCOC(Cn2cccn2)C1)NC1CCCC1 (stereo not given)"
  Percent Effect / %: -3.66
- compound: "CCS(=O)(=O)CC(=O)NC(c1ccc(F)cc1)C1CCCC1 (stereo not given)"
  Percent Effect / %: 132
- compound: "Cc1cc(CN2Cc3ccccc3CC2c2nnc(C)o2)on1 (stereo not given)"
  Percent Effect / %: 6.16
- compound: "c1ccc(Cn2cc3c(n2)C(CNCc2ccco2)OCC3)nc1 (stereo not given)"
  Percent Effect / %: 0.188
- compound: "CCOCC(=O)N1CCC(Oc2ccc(Cl)cn2)CC1"
  Percent Effect / %: 2.32
- compound: "CCc1nc(C2CCCN(C(=O)c3ccc(OC(C)C)nc3)C2)no1 (stereo not given)"
  Percent Effect / %: -0.62
- compound: "CSc1ccc(C(CN)N2CCc3sccc3C2)cc1 (stereo not given)"
  Percent Effect / %: -4.11
- compound: "COCCNC(=O)[C@H]1CN(c2nnc(C)s2)C[C@H]2OCC[C@@H]12"
  Percent Effect / %: 13.1
- compound: "COC(=O)CN(C)C1CCc2ccccc21 (stereo not given)"
  Percent Effect / %: 1.01
- compound: "COC[C@H]1CCC[C@]12CN(CCc1ccccc1)CCO2"
  Percent Effect / %: 1.6
- compound: "Cc1cc(S(=O)(=O)N2CCC(S(C)(=O)=O)CC2)ccc1F"
  Percent Effect / %: 6.02
- compound: "O=C(Cc1ccccn1)N1CCc2nc(-c3cnccn3)nc(O)c2C1"
  Percent Effect / %: 8.84
- compound: "CC(NC1(CNC(=O)Cn2cccn2)CCOCC1)c1ccccc1 (stereo not given)"
  Percent Effect / %: -3.26
- compound: "Cc1cnn(C2CN(Cc3ccc4c(c3)OCCO4)C2)c1"
  Percent Effect / %: -8.78
